# STUDY SYSTEM: human P-Selectin-IgG-chimera (Homo sapiens, UniProt P16109)
# Sequence (P16109 42-771 limits assumed): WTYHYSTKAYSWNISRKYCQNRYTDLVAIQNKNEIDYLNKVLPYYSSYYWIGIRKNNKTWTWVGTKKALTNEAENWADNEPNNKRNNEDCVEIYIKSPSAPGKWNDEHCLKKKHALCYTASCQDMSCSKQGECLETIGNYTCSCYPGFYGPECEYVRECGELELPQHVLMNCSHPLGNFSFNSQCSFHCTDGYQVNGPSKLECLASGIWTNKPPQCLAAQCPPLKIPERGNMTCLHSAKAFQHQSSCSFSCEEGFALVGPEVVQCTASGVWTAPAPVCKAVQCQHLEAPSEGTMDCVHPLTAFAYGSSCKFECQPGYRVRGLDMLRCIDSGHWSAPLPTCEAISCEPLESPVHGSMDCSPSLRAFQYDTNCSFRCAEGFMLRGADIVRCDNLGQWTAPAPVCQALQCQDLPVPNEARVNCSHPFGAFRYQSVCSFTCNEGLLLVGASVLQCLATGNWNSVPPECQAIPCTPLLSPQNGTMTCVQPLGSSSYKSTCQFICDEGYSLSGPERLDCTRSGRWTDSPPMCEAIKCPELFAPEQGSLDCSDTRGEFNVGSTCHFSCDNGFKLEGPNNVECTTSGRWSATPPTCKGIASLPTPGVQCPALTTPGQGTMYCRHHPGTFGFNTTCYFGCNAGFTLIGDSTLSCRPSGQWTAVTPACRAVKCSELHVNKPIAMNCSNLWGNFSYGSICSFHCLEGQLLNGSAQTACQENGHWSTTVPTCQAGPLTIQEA
# EXPERIMENT DESCRIPTION: Sialyl Lewis x Tyrosine Sulfate Assay (sLex TSA), P-selectin
# Type: binding
# ASSAY SETUP: compound at 100 μM, read-out: P-Selectin [% Inhib.]

COMPOUND	STUDY SYSTEM	inhibition at 100 µM
O=C(O)Cc1cccc(NC(=O)CCc2cc(O)c(O)c(O)c2)c1 [Compound 109]	human P-Selectin-IgG-chimera (Homo sapiens, UniProt P16109)	73%
O=C(O)Cc1ccc(-c2ccccc2NC(=O)CCc2cc(O)c(O)c(O)c2)s1 [Compound 102]	human P-Selectin-IgG-chimera (Homo sapiens, UniProt P16109)	97%
O=C(O)Cc1ccc(-c2ccccc2NC(=O)c2cccc(-c3ccc(O)c(O)c3O)c2)s1 [Compound 48]	human P-Selectin-IgG-chimera (Homo sapiens, UniProt P16109)	97%
O=C(Cc1cc(O)c(O)c(O)c1)NCC1CCC(C(=O)O)CC1 (centres unmarked) [Compound 104]	human P-Selectin-IgG-chimera (Homo sapiens, UniProt P16109)	67%
O=C(Cc1cc(O)c(O)c(O)c1)Nc1cccc(C(=O)O)c1 [Compound 96]	human P-Selectin-IgG-chimera (Homo sapiens, UniProt P16109)	86%
COC(=O)c1ccccc1NC(=O)Cc1ccc(O)c(O)c1O [Compound 93]	human P-Selectin-IgG-chimera (Homo sapiens, UniProt P16109)	68%
O=C(O)Cc1cccc(NC(=O)Cc2cc(O)c(O)c(O)c2)c1 [Compound 98]	human P-Selectin-IgG-chimera (Homo sapiens, UniProt P16109)	57%
O=C(Cc1ccc(O)c(O)c1O)Nc1cccc(C(=O)O)c1 [Compound 111]	human P-Selectin-IgG-chimera (Homo sapiens, UniProt P16109)	99%
O=C(CCc1cc(O)c(O)c(O)c1)NCC1CCC(C(=O)O)CC1 (centres unmarked) [Compound 105]	human P-Selectin-IgG-chimera (Homo sapiens, UniProt P16109)	86%
O=C(/C=C/c1ccc(O)c(O)c1O)Nc1ccc(C(=O)O)cc1 [Compound 97]	human P-Selectin-IgG-chimera (Homo sapiens, UniProt P16109)	97%
Cc1c(NC(=O)CCc2cc(O)c(O)c(O)c2)cccc1C(=O)O [Compound 117]	human P-Selectin-IgG-chimera (Homo sapiens, UniProt P16109)	86%

* * *

# STUDY SYSTEM: human P-Selectin-IgG-chimera (Homo sapiens, UniProt P16109)
# Sequence (P16109 42-771 limits assumed): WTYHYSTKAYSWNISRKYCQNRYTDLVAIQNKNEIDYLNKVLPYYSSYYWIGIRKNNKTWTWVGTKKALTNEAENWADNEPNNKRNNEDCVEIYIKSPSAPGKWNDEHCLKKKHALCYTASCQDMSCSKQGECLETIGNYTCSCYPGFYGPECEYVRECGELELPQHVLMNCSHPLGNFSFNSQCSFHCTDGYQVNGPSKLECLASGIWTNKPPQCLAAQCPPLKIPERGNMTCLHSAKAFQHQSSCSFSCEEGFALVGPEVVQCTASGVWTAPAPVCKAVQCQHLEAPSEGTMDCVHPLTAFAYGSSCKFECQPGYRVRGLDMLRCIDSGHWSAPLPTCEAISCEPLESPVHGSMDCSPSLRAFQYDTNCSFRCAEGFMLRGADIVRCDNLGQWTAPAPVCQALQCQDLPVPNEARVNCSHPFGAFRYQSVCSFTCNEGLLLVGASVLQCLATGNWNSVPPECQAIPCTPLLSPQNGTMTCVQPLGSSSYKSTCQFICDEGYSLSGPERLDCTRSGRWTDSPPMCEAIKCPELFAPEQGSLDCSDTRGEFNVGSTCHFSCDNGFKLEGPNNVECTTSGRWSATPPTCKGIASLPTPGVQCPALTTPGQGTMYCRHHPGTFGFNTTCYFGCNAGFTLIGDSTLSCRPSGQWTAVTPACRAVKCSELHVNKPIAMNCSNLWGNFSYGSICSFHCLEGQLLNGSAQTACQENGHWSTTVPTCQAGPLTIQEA
pIC50: −log10 of the molar value.

CHEMICAL STRUCTURE	pIC50
O=C(Cc1ccc(O)c(O)c1O)Nc1cccc(C(=O)O)c1	5.68
O=C(O)Cc1cccc(NC(=O)Cc2cc(O)c(O)c(O)c2)c1	5.68
Cc1c(NC(=O)CCc2cc(O)c(O)c(O)c2)cccc1C(=O)O	4.66
O=C(O)Cc1ccc(-c2ccccc2NC(=O)c2cccc(-c3ccc(O)c(O)c3O)c2)s1	5.24
O=C(O)Cc1cccc(NC(=O)Cc2ccc(O)c(O)c2O)c1	5.13

* * *

L-Selectin [% Inhib.]: recorded values
# STUDY SYSTEM: human L-Selectin-IgG-chimera (Homo sapiens)
# Construct: fused on or other part: human IgG Fc part, a tag and dimerising handle that is captured by the goat anti-human Fc antibody on the plate
# Sequence (P14151 39-318 limits assumed, change not shown): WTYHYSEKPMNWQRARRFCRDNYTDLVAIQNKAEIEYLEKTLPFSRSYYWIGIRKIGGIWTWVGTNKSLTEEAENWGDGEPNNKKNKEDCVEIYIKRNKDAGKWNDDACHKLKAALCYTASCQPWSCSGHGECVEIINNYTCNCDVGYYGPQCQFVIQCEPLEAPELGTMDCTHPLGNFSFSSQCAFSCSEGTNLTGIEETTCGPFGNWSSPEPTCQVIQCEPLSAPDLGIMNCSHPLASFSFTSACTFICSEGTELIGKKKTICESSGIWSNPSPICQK
# EXPERIMENT DESCRIPTION: Sialyl Lewis x Tyrosine Sulfate Assay (sLex TSA), L-selectin
# Format: binding
# ASSAY SETUP: compound at 100 μM

COMPOUND	UNITS OF MEASURE	L-Selectin [% Inhib.]
O=C(Cc1ccc(O)c(O)c1O)NCC1CCC(C(=O)O)CC1 (stereo not shown)	%	27
Cc1c(NC(=O)CCc2ccc(O)c(O)c2O)cccc1C(=O)O	%	88
Cc1cccc(NC(=O)CCc2ccc(O)c(O)c2O)c1	%	77
O=C(O)Cc1ccc(-c2ccccc2NC(=O)CCc2ccc(O)c(O)c2O)s1	%	85

* * *

# EXPERIMENT DESCRIPTION: Parallel Artificial Membrane Permeation Assay (PAMPA)
# Type: in vitro ADME
# ASSAY SETUP: pH 4.0, 500 μM donor, 16 hours, room temperature
ASSAY READOUT: [% flux] at pH 4.0 (%)

CHEMICAL STRUCTURE	ASSAY READOUT	NUMERIC READOUT
O=C(Cc1cc(O)c(O)c(O)c1)NCc1ccc(C(=O)O)cc1	[% flux] at pH 4.0	0
Cc1cccc(NC(=O)CCc2ccc(O)c(O)c2O)c1	[% flux] at pH 4.0	12
Cc1cccc(NC(=O)Cc2ccc(O)c(O)c2O)c1	[% flux] at pH 4.0	6
O=C(Cc1cc(O)c(O)c(O)c1)Nc1cccc(C(F)(F)F)c1	[% flux] at pH 4.0	27
COC(=O)c1ccccc1NC(=O)Cc1ccc(O)c(O)c1O	[% flux] at pH 4.0	0
O=C(Cc1ccc(O)c(O)c1O)Nc1cc(Cl)cc(Cl)c1	[% flux] at pH 4.0	100
O=C(/C=C/c1ccc(O)c(O)c1O)Nc1ccc(C(=O)O)cc1	[% flux] at pH 4.0	0

* * *

Overview of recorded P-Selectin [% Inhib.] for various compounds
# STUDY SYSTEM: UniProt P16109
# EXPERIMENT DESCRIPTION: Sialyl Lewis x Tyrosine Sulfate Assay (sLex TSA), P-selectin
# Format: binding
# ASSAY SETUP: compound at 100 μM
# Protocol: Compounds of the present invention are assayed on a molecular level for their ability to inhibit the binding of P-, L-, or E-selectin chimeric molecules to sLe^x and tyrosinesulfate residues linked to a polymeric matrix as a PSGL-1 substitute. Microtiter plates are coated overnight in carbonate buffer pH9.6 with goat anti human Fc mAB (10 μg/ml). […]

COMPOUND	UNITS OF MEASURE	P-Selectin [% Inhib.]
Cc1cccc(NC(=O)CCc2ccc(O)c(O)c2O)c1	%	73
O=C(O)Cc1ccc(-c2ccccc2NC(=O)CCc2ccc(O)c(O)c2O)s1	%	94
Cc1oc(-c2ccc(NC(=O)Cc3cc(O)c(O)c(O)c3)cc2)cc1C(=O)O	%	93
O=C(CCc1ccc(O)c(O)c1O)Nc1cccc(C(=O)O)c1	%	99
O=C(O)Cc1cccc(-c2ccccc2NC(=O)CCc2cc(O)c(O)c(O)c2)c1	%	90
Cc1c(NC(=O)CCc2ccc(O)c(O)c2O)cccc1C(=O)O	%	89
O=C(CCc1cc(O)c(O)c(O)c1)Nc1cccc(C(=O)O)c1	%	96
O=C(Cc1ccc(O)c(O)c1O)NCC1CCC(C(=O)O)CC1 (stereo not shown)	%	40
Cc1c(NC(=O)Cc2ccc(O)c(O)c2O)cccc1C(=O)O	%	73
O=C(O)Cc1ccc(-c2ccccc2NC(=O)Cc2cc(O)c(O)c(O)c2)s1	%	87
O=C(Cc1ccc(O)c(O)c1O)NCc1ccc(C(=O)O)cc1	%	82
Cc1cccc(NC(=O)Cc2ccc(O)c(O)c2O)c1	%	81
Cc1ccc(C(=O)O)cc1NC(=O)Cc1cc(O)c(O)c(O)c1	%	87
